# Procedure Text: Lethal dose was measured in mice 0.5 hr post intraperitoneal administration
# Type: toxicity, organism-based
# Reported Conditions: mouse, in vivo, ip
LD50 at 0.5 h overview

Consider the worked cases shown below.
CN1CCc2cccc(-c3ccccc3)c2C1.O=C(O)/C=C/C(=O)O :: < 320 mg/kg
COc1ccccc1-c1cccc2c1CN(Cc1ccccc1)CC2.Cl :: > 160 mg/kg
Br.CC1Cc2cccc(-c3ccccc3)c2CN1C (stereo not given) :: < 320 mg/kg
COc1cccc(-c2cccc3c2CNCC3)c1.Cl :: < 160 mg/kg

Continue with the next molecule.
Lab note: measured LD50 at 0.5 h of COc1cccc(-c2cccc3c2CN(Cc2ccccc2)CC3)c1.Cl was > 320 mg/kg
